- target.or.system: Quinolone resistance protein NorA (Staphylococcus aureus)
- experiment: Inhibition of NorA in Staphylococcus aureus 1199B infected human THP-1 cells assessed as potentiation of norfloxacin-induced bactericidal activity by measuring reduction in intracellular proliferation at modulatory concentration measured after 24 hrs
- Assay type: cell-based
Activity calls are given as the source filed them. The rule behind the calls is not given here.
measurement.kind: inhibition

C=CCOc1ccc(C2N=C(c3ccccc3)c3cc(Cl)ccc3N2C)cc1 (centres undefined) : Active
Brc1ccc(C2=NC(c3ccc(Br)cc3)Nc3ccccc32)cc1 (centres undefined) : Active
Fc1ccccc1C1=NC(c2ccco2)Nc2ccc(Cl)cc21 (centres undefined) : Active
CN1c2ccc(Cl)cc2C(c2ccccc2)=NC1c1ccc(Br)cc1 (centres undefined) : Active
